These measurements were taken from PubChem BioAssay (NCI).

- Test system: MDA-MB-435
- runDescription: NCI tumour cell line growth inhibition, 48 h
propertyMeasured: TGI

| compound | TGI |
| --- | --- |
| SC1CCCN(Cc2ccccc2)C1 (configuration not stated) | > 100 µM |
| CSc1ncnc2c1ncn2C1OC(CO)C(O)OC1O (configuration not stated) | 23.8 µM |
| CCOC(=O)C(C)(C)C(O)C(C)C (configuration not stated) | > 100 µM |

[ask] Reported TGI for "c1ccc(C(=NNc2cnc3ccccc3n2)c2ccccn2)cc1" : what is it?
[reply] > 47.6 µM

[ask] Can you look up the measured TGI of "Br/C(=N\Nc1nn[nH]n1)c1ccncc1" for me?
[reply] > 100 µM

[ask] Dear colleague, I am looking for the recorded TGI of the following compound: CCC1C(=O)C(O)[C@H]2[C@@H]3C(O)CC4=CC(=O)CC[C@]4(C)[C@H]3CC[C@]12C (some centres not stated)
[reply] > 50 µM

[ask] Requested read-out: TGI. Entry: "COc1cc(/C=C/C(=O)CC(=O)/C=C/c2ccc(O)c(OC)c2)ccc1O"
[reply] 12.1 µM

====

- Test system: HL-60(TB) leukemia
- runDescription: NCI tumour cell line growth inhibition, 48 h
propertyMeasured: TGI (µM)
Lab book: enter the figure in µM, no units written.

# count of solved cases: 2
| molecule | uom | TGI |
| --- | --- | --- |
| O=C(c1cc2c(c3ccccc13)NCCN=C2C(F)(F)F)C(F)(F)F | µM | 75.4 |
| Cc1nc2c(o1)C(=O)c1ccccc1C2=Nc1ccc(N2CCOCC2)cc1 | µM | 7.24 |

[ask] # query: TGI of entry "O=S(=O)(Nc1cc(Cl)ccc1Cl)c1ccc(-c2cnc(C3CC3)o2)cc1"
[reply] 16.4

[ask] # input molecule: "C[C@]12CC[C@H](O)CC1=CC[C@@H]1[C@@H]2CC[C@]2(C)C(=N/O)/C(=C/c3ccc([N+](=O)[O-])cc3)C[C@@H]12" ; wanted: its TGI
[reply] 25

[ask] What value of measured TGI is listed for O=C1OC(c2ccccc2)(c2cc(Br)c(O)c(Br)c2)c2ccccc21 (centres undefined) ?
[reply] 67.8

====

- System: RXF 393 renal
- runDescription: NCI tumour cell line growth inhibition, 48 h
propertyMeasured: TGI (µM)
// note: answer is a bare numeric in µM

Here is how some compounds turned out for TGI.
| compound | targetSystem | assayValue |
| --- | --- | --- |
| C=C1C(=O)O[C@@H]2C1C[C@@H](O)C(=C)CC/C=C(\C)CCC[C@H](C)[C@H]2OC(C)=O (some centres undefined) | RXF 393 renal | 20.9 |
| COc1cnc2c(c1)C(=O)c1c-2n(CCCNC(C)C)c(=O)c2cc(F)ccc12 | RXF 393 renal | 0.702 |
| O=C(/C(=C/c1ccc([N+](=O)[O-])cc1)SCc1ccc(F)cc1)c1ccc(Cl)cc1 | RXF 393 renal | 36.6 |
| C[C@H](CCCNCCCNCCCN)[C@H]1CC[C@H]2[C@@H]3[C@H](OCCCN)C[C@H]4C[C@H](OCCCN)CC[C@]4(C)[C@H]3C[C@H](OCCCN)[C@]12C | RXF 393 renal | 46.9 |
| COc1cc(-c2nn(-c3cccc(NC(=O)c4ccc(N5CCOCC5)c(C(F)(F)F)c4)c3)cc2-c2ccncc2)ccc1Cl | RXF 393 renal | 0.809 |

We next turn to a different compound, shown below.
[ask] # returns recorded TGI (system: RXF 393 renal) for "CCCCC(=O)OC[n+]1ccc2c(C)c3[nH]c4ccccc4c3c(C)c2c1"
[reply] 2.52
